Target: Bifunctional dihydrofolate reductase-thymidylate synthase (Toxoplasma gondii)
Sequence (Q07422 whole entry): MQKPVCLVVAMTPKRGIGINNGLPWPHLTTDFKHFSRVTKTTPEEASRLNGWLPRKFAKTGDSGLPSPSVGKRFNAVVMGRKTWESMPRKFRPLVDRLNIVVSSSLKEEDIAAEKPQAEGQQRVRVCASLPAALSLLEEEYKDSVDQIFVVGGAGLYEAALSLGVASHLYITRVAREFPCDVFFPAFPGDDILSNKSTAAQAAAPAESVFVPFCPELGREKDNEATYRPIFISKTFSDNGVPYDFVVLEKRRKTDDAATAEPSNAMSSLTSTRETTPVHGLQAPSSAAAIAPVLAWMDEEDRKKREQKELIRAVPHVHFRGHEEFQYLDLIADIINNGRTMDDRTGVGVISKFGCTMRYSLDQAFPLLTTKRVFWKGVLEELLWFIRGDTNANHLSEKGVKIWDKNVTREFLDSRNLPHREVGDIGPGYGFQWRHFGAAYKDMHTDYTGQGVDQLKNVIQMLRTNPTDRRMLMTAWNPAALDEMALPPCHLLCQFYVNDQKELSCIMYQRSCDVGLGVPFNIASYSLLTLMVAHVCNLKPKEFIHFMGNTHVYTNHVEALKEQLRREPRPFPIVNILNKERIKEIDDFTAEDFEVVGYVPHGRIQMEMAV
Assay: Inhibitory activity against dihydrofolate reductase DHFR in Toxoplasma gondii.
pIC50: −log10 of the molar value.
Label condition not met if pIC50 falls below 6; label condition met in every other case.

structure-smiles: CCc1nc(N)nc(N)c1-c1ccc(Cl)c(/N=N/N(CCOC(C)=O)Cc2cccc(C)c2)c1
label: condition not met
--
structure-smiles: CCc1nc(N)nc(N)c1-c1ccc(Cl)c(/N=N/N(CCOC(=O)c2ccccc2)Cc2ccccc2)c1
label: condition met
--
structure-smiles: CCc1nc(N)nc(N)c1-c1ccc(Cl)c(/N=N/N(CCOC(C)=O)Cc2ccncc2)c1
label: condition met

From here, focus on the item given below.
Qu. Given CCc1nc(N)nc(N)c1-c1ccc(Cl)c(/N=N/N(CCOC(C)=O)Cc2ccc(C(F)(F)F)cc2)c1 , state whether its pIC50 is at least 6.
Ans. condition not met

----------
test: Selectivity ratio of IC50(rat liver)/IC50(Mycobacterium avium)
Entries whose Selectivity ratio is below 0.9 take 1; entries at or above 0.9 take 0.

# example entries with known answers
structure-smiles: CCc1nc(N)nc(N)c1-c1ccc(Cl)c(/N=N/N(CCCO)Cc2ccccc2)c1
label: 0
//
structure-smiles: CCc1nc(N)nc(N)c1-c1ccc(Cl)c(/N=N/N(CCOC(C)=O)Cc2ccc(C)cc2)c1
label: 1

Qu. Please let me know if CCc1nc(N)nc(N)c1-c1ccc(Cl)c(/N=N/N(CCO)CCc2ccccc2)c1 shows Selectivity ratio below 0.9.
Ans. 1

Qu. Please let me know if CCc1nc(N)nc(N)c1-c1ccc(Cl)c(/N=N/N(CCOC(C)=O)Cc2cccc(C)c2)c1 shows Selectivity ratio below 0.9.
Ans. 1

Qu. Please let me know if CCc1nc(N)nc(N)c1-c1ccc(Cl)c(/N=N/N(CCOC(C)=O)Cc2ccc([N+](=O)[O-])cc2)c1 shows Selectivity ratio below 0.9.
Ans. 1

Qu. Please let me know if CCc1nc(N)nc(N)c1-c1ccc(Cl)c(/N=N/N(CCOC(C)=O)Cc2cccc(F)c2)c1 shows Selectivity ratio below 0.9.
Ans. 0

Qu. Please let me know if CCc1nc(N)nc(N)c1-c1ccc(Cl)c(/N=N/N(CCOC(C)=O)Cc2ccncc2)c1 shows Selectivity ratio below 0.9.
Ans. 0

Qu. Please let me know if CCc1nc(N)nc(N)c1-c1ccc(Cl)c(/N=N/N(CCOC(C)=O)Cc2ccc(F)cc2)c1 shows Selectivity ratio below 0.9.
Ans. 1

Qu. Please let me know if CCc1nc(N)nc(N)c1-c1ccc(Cl)c(/N=N/N(CCOC(C)=O)Cc2cccc([N+](=O)[O-])c2)c1 shows Selectivity ratio below 0.9.
Ans. 1

Qu. Please let me know if CCc1nc(N)nc(N)c1-c1ccc(Cl)c(/N=N/N(CCOC(C)=O)Cc2cc(OC)cc(OC)c2)c1 shows Selectivity ratio below 0.9.
Ans. 1
